Procedure Text: Half life in dog at 0.5 mg/kg, po or 0.4 mg/kg, iv administered in cassette format
Assay type: ADME, organism-based, Canis lupus familiaris
Protocol Conditions: in vivo
The entries below are paired with their reported half-life.
Please respond with the number in h and leave the unit unwritten.

| Molecule | Unit | half-life |
| --- | --- | --- |
| NC(=O)c1ccc(C(=O)N[C@@H](Cc2ccccc2)c2nc(-c3ccc4c(N)n[nH]c4c3)c(Cl)[nH]2)cc1 | h | 1.4 |

Please report the recorded half-life for "COC(=O)Nc1ccc(-c2nc([C@H](Cc3ccccc3)NC(=O)/C=C/c3cc(Cl)ccc3-n3cnnn3)[nH]c2Cl)cc1" . 3.1

Next record, please: "Cc1ccc(C(=O)N[C@@H](Cc2ccccc2)c2nc(-c3ccc4c(N)n[nH]c4c3)c(Cl)[nH]2)c(F)c1" 1.8

Next record, please: "COC(=O)Nc1ccc(-c2nc([C@H](Cc3ccccc3)NC(=O)CCc3cc(Cl)ccc3-n3cnnn3)[nH]c2Cl)cc1" 2.6

Next record, please: "Nc1nccc2cc(C(=O)N[C@@H](Cc3ccccc3)c3nc(-c4ccc5c(N)n[nH]c5c4)c(Cl)[nH]3)ccc12" 0.14

Next record, please: Nc1nccc2c1CCC(C(=O)N[C@@H](Cc1ccccc1)c1nc(-c3ccc4c(N)n[nH]c4c3)c(Cl)[nH]1)C2 (single isomer, unassigned; diastereomer A) 2.3

Next record, please: "Nc1n[nH]c2cc(-c3nc([C@H](Cc4ccccc4)NC(=O)/C=C/c4cc(Cl)ccc4-n4cnnn4)[nH]c3Cl)ccc12" 2.2
